# test-target: Myt1 kinase (recombinant PMYT-1) (Homo sapiens, UniProt Q99640)
# Construct: full length PMYT-1 was expressed by baculovirus in insect cells; purchased Invitrogen A30984; host or cells: insect cells (baculovirus)
# Sequence (Q99640 1-499): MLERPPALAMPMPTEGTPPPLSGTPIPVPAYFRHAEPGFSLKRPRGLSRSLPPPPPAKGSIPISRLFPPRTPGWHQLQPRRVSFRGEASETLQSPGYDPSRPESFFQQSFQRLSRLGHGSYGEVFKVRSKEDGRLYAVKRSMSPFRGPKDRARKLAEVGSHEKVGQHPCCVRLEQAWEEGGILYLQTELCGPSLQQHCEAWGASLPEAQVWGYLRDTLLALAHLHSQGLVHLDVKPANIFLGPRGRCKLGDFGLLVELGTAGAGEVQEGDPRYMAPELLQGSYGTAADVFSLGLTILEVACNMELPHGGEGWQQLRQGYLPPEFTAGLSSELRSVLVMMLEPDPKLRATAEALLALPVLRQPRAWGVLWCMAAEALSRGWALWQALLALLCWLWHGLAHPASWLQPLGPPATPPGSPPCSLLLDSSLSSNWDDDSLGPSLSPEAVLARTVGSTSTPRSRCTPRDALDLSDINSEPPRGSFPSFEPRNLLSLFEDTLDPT
# test-name: Myt1 kinase binding assay (LanthaScreen Eu Kinase Binding Assay)
# experimental-context: 3 nM tracer 178, 2.5 nM PMYT-1, 1 nM Eu-labeled antibody; read-out: Myt1 kinase Binding IC50
assay-readout: IC50

Sample answers from the record:
C=CCn1c(=O)c2cnc(Nc3cncc(Cl)c3)nc2n1-c1cccc(OC2CCN(C)CC2)n1 [Compound 323] | 20 to 100 nM
C=CCn1c(=O)c2cnc(Nc3cccnc3)nc2n1-c1cccc(OC2CCNCC2)n1 [Compound 230] | < 20 nM
C=CCn1c(=O)c2cnc(Nc3ccc4c(cnn4C)c3)nc2n1-c1cccc(OC2CCNCC2)n1 [Compound 106] | 20 to 100 nM
C=CCn1c(=O)c2cnc(Nc3ccc4c(c3)ncn4C)nc2n1-c1cccc(OC2CCNCC2)n1 [Compound 319] | 20 to 100 nM
C=CCn1c(=O)c2cnc(Nc3ccc4c(cnn4C)c3)nc2n1-c1cccc(O[C@H]2CCN(C)[C@H](C)C2)n1 (stereo in doubt) [Compound 380] | 100 to 500 nM

Inquiry: Any idea what IC50 came out for CCn1c(=O)c2cnc(Nc3cccc(-c4cccnc4)c3)nc2n1-c1cccc(OC2CCN(C)CC2)n1 [Compound 352] on Myt1 kinase (recombinant PMYT-1) (Homo sapiens, UniProt Q99640)?
Reply text: 20 to 100 nM

Inquiry: Report IC50 for C=CCn1c(=O)c2cnc(Nc3ccc4c(cnn4C)c3)nc2n1-c1cccc(NC2CCN(C)CC2)n1 [Compound 129] tested on Myt1 kinase (recombinant PMYT-1) (Homo sapiens, UniProt Q99640).
Reply text: 100 to 500 nM

Inquiry: Give recorded IC50 with Myt1 kinase (recombinant PMYT-1) (Homo sapiens, UniProt Q99640) for the following compound: CCn1c(=O)c2cnc(Nc3ccc(-c4ccccc4)cc3)nc2n1-c1cccc(OC2CCNCC2)n1 [Compound 272]
Reply text: < 20 nM

Source: patent US20260364080A1
